# System: Nanoluciferase (engineered Oplophorus gracilirostris luciferase)
# assay: Primary Nanoluciferase (NLuc) qHTS assay for identification of artifact compounds. (AID 1845222);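 also: NLuc secreted into diluted conditioned medium of S16 cells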
# test_settings: NLuc-conditioned medium, Nano-Glo luminescence, 5 min; series mostly up to 54.1 µM
Calls of active or inactive are those of the source. Calls follow the shape of the dose curve; as a rule, active = well fitted inhibition curve with a large enough effect; inconclusive = small, poorly fitted or top-dose-only effect; inactive = flat fitted curve, though single readings scatter.
metric_name: activity, negative = inhibition

Worked set:
Exam item: Form field: reported activity, negative = inhibition of O=C(O)C1=CO[C@@H](O[C@@H]2O[C@H](CO)[C@@H](O)[C@H](O)[C@H]2O)[C@@H]2C(CO)=CC[C@H]12
Marked response: inactive

Exam item: Form field: reported activity, negative = inhibition of CC(=O)OC1CC2(C)C(CCC(C)C23Cc2c(O)cc(CO)c(C=O)c2O3)C(C)(C)C1O (stereo not drawn)
Marked response: inactive

Exam item: Form field: reported activity, negative = inhibition of COC(=O)C[C@H]1[C@]2(C)C3=C(C)[C@H](c4ccoc4)C[C@H]3O[C@@H]2[C@H](O)C2[C@](C)(C(=O)OC)C=CC(=O)[C@@]21C (stereo partly drawn)
Marked response: inactive

Exam item: Form field: reported activity, negative = inhibition of CC#CCn1c(N2CCCC(N)C2)nc2c1c(=O)n(Cc1nc(C)c3ccccc3n1)c(=O)n2C (stereo not drawn)
Marked response: inactive

Exam item: Form field: reported activity, negative = inhibition of CCCCCCOC(=O)/N=C(\N)c1ccc(NCc2nc3cc(C(=O)N(CCC(=O)OCC)c4ccccn4)ccc3n2C)cc1
Marked response: inactive

Exam item: Form field: reported activity, negative = inhibition of CCOC(=O)N1c2ccc(C(F)(F)F)cc2C(N(Cc2cc(C(F)(F)F)cc(C(F)(F)F)c2)C(=O)OC)CC1CC (stereo not drawn)
Marked response: inactive

Further cases:
Exam item: Form field: reported activity, negative = inhibition of N#Cc1cc(-c2ccnc(Nc3ccc(N4CCOCC4)cc3)n2)ccc1OC1CCOCC1
Marked response: inactive

Exam item: Form field: reported activity, negative = inhibition of C=CC(C)(O)CC[C@@H]1[C@@]2(C)CCCC(C)(C)C2CC[C@@]1(C)O (stereo partly drawn)
Marked response: inactive
